Data provenance is ChEMBL document CHEMBL1145067.

# systemTested: Thymidylate kinase (Mycobacterium tuberculosis)
# Sequence (P9WKE1 whole entry): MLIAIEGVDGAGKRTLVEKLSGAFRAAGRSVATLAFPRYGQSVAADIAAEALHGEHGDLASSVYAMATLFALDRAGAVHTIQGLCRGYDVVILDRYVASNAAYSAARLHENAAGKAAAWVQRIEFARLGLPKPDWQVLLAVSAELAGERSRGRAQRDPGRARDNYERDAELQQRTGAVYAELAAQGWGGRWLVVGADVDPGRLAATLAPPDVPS
pKi: −log10 of the molar value.
Tag: 1 if measured pKi is not below 4, -1 if it is.

1) Cc1cn([C@H]2C[C@H](CO)[C@@H](CO)O2)c(=O)[nH]c1=O	1
2) Cc1cn([C@H]2C[C@H](CN=[N+]=[N-])[C@@H](CO)O2)c(=O)[nH]c1=O	1
3) Cc1cn([C@@H]2O[C@H](CO)[C@@H](CN)[C@H]2O)c(=O)[nH]c1=O	-1
4) Cc1cn([C@H]2C[C@H](CCO)[C@@H](CO)O2)c(=O)[nH]c1=O	-1
5) Cc1cn([C@H]2C[C@H](CN)[C@@H](CO)O2)c(=O)[nH]c1=O	1
6) Cc1cn([C@H]2C[C@H](CF)[C@@H](COP(=O)(O)O)O2)c(=O)[nH]c1=O	1
7) Cc1cn([C@@H]2O[C@H](COP(=O)(O)O)[C@@H](CN)[C@H]2O)c(=O)[nH]c1=O	-1
8) Cc1cn([C@H]2C[C@H](CF)[C@@H](CO)O2)c(=O)[nH]c1=O	1
9) Cc1cn([C@H]2C[C@H](CN=[N+]=[N-])[C@@H](COP(=O)(O)O)O2)c(=O)[nH]c1=O	1
10) Cc1cn([C@H]2C[C@H](N=[N+]=[N-])[C@@H](CO)O2)c(=O)[nH]c1=O	1
11) Cc1cn([C@@H]2O[C@H](CO)[C@@H](CN=[N+]=[N-])[C@H]2O)c(=O)[nH]c1=O	-1
12) Cc1cn([C@H]2C[C@H](CN)[C@@H](COP(=O)(O)O)O2)c(=O)[nH]c1=O	1
13) Cc1cn([C@H]2C[C@H](CO)[C@@H](COP(=O)(O)O)O2)c(=O)[nH]c1=O	1

* * *

# maps each entry to its SI
# assay: ratio of Ki (Ki TMPKh / KiTMPKmt) was determined
property: SI

1. Cc1cn([C@H]2C[C@H](CO)[C@@H](COP(=O)(O)O)O2)c(=O)[nH]c1=O	1.5
2. Cc1cn([C@H]2C[C@H](CN)[C@@H](CO)O2)c(=O)[nH]c1=O	3.9
3. Cc1cn([C@@H]2O[C@H](COP(=O)(O)O)[C@@H](CN)[C@H]2O)c(=O)[nH]c1=O	0.9
4. Cc1cn([C@H]2C[C@H](CN)[C@@H](COP(=O)(O)O)O2)c(=O)[nH]c1=O	0.4
5. Cc1cn([C@H]2C[C@H](CF)[C@@H](COP(=O)(O)O)O2)c(=O)[nH]c1=O	2.7

* * *

# SI values compiled below
# assay: ratio of Ki (Ki TMPKh / KiTMPKmt) was determined
property: SI

1. Cc1cn([C@H]2C[C@H](CN=[N+]=[N-])[C@@H](CO)O2)c(=O)[nH]c1=O	26
2. Cc1cn([C@@H]2O[C@H](CO)[C@@H](CN)[C@H]2O)c(=O)[nH]c1=O	0.3
3. Cc1cn([C@H]2C[C@H](CO)[C@@H](CO)O2)c(=O)[nH]c1=O	10
4. Cc1cn([C@H]2C[C@H](CF)[C@@H](CO)O2)c(=O)[nH]c1=O	21.6
5. Cc1cn([C@H]2C[C@H](CN=[N+]=[N-])[C@@H](COP(=O)(O)O)O2)c(=O)[nH]c1=O	2.7
